Numbers sourced from PubChem BioAssay (NCI).

- System: HS 578T breast
- Measurement description: NCI tumour cell line growth inhibition, 48 h; in the data active = GI50 below about 0.43 µM; inactive = the rest
Valid outcomes are listed here; reply with one: active, inactive

# outcome recorded in this test, key = Cc1cc(=O)[nH]c2cc3c(c4c(n3Cc3ccc(Cl)cc3Cl)CC(C)(C)CC4=O)c(O)c12 inactive

# outcome recorded in this test, key = COc1ccc(/C=C(\C#N)n2nnc3ccccc32)cc1 active

# outcome recorded in this test, key = CNC(=O)CC1NC(=O)c2csc(n2)-c2ccc(-c3nc(C4=NC(C(=O)N5CCCC5C(N)=O)CO4)cs3)nc2-c2csc(n2)-c2csc(n2)C(C(C)C)NC(=O)CNC(=O)c2csc(n2)C(C(C)C)NC(=O)c2nc1sc2C (stereo not drawn) active

# outcome recorded in this test, key = COC(=O)C1CCCN1C(=O)[C@@H]1CCCN1C(=O)[C@H](Cc1c[nH]c2ccccc12)NC(=S)Nc1cc(C(F)(F)F)cc(C(F)(F)F)c1 (stereo partly drawn) inactive

# outcome recorded in this test, key = Clc1ccc2nnnn2n1 inactive

# outcome recorded in this test, key = CC(C)COCC(CN(Cc1ccccc1)c1ccccc1)N1CCCC1 (stereo not drawn) inactive

# outcome recorded in this test, key = COc1ccc(/C(=N\O)c2cc(C)c(OC)c(C)c2)cc1O active

# outcome recorded in this test, key = CNCCNc1c2c(c(NCCNC)c3[nH]ccc13)C(=O)c1ccccc1C2=O inactive

----------
- Test system: IGROV1 ovarian
- Measurement description: NCI tumour cell line growth inhibition, 48 h
Record form. Attribute: TGI. Fill in for each entry.

Please give the measured TGI for this compound: CC(C)(C)OC(=O)NC(CCC(=O)OCc1ccccc1)C(=O)NCCCO (configuration not stated) > 100 µM

Please give the measured TGI for this compound: CN(C)CCNC(=O)c1cccc2[nH]c(-c3cccnc3)nc12 > 100 µM

Please give the measured TGI for this compound: CC(C)(C)c1ccc(-n2c3nc(=O)n(-c4ccccc4CO)c(=O)c-3cc3ccccc32)cc1 > 100 µM

Please give the measured TGI for this compound: COc1ccc(/C(=N\O)c2cc(C)c(OC)c(C)c2)cc1O > 100 µM

Please give the measured TGI for this compound: C[N+]1(Cc2ccc(Cl)c(Cl)c2)CCCC1C1CCCN(Cc2ccc(Cl)c(Cl)c2)C1 (configuration not stated) > 100 µM

Please give the measured TGI for this compound: CC(=O)C(CN(Cc1ccccc1)Cc1ccccc1)C(c1ccccc1)c1c(O)c2ccccc2oc1=O (configuration not stated) > 100 µM

Please give the measured TGI for this compound: c1ccc2cc3[s+]snc3cc2c1 > 100 µM

Please give the measured TGI for this compound: N=[N+]=CC(=O)CCC(NC(=O)C(CCC(=O)C=[N+]=N)NC(=O)CCC(N)C(=O)O)C(=O)O (configuration not stated) > 100 µM

Please give the measured TGI for this compound: COc1ccc(N2C(=O)C(C)SC2c2cc3cc(Br)ccc3nc2Cl)cc1 (configuration not stated) > 100 µM

Please give the measured TGI for this compound: C/C(=N\NC(=O)c1ccncc1)c1ccccc1F > 10 µM

Please give the measured TGI for this compound: NC1=C(c2nc(-c3ccccc3)cs2)C(c2ccc(Br)cc2)c2c(c3ccccc3oc2=O)O1 (configuration not stated) > 150 µg/mL

Please give the measured TGI for this compound: Cc1cc(=O)[nH]c2cc3c(c4c(n3Cc3ccc(Cl)cc3Cl)CC(C)(C)CC4=O)c(O)c12 > 100 µM

Please give the measured TGI for this compound: CC1=C(C)C1[N+](=O)[O-] > 100 µM

Please give the measured TGI for this compound: C[N+]1(C)C/C(=C\c2ccccc2)C(=O)/C(=C/c2ccccc2)C1 > 100 µM

Please give the measured TGI for this compound: CN1CC[C@]2(C)c3cc(O)ccc3CC3CCCC1C32C (some centres not stated) > 100 µM

Please give the measured TGI for this compound: C1CSC(=[N+]2CC[N+](=C3SCCS3)CC2)S1 > 100 µM

Please give the measured TGI for this compound: O=C(O)C1C(C(=O)O)C23CC2(C(=O)O)C2(C(=O)O)CCC3=C3CCCC312 (configuration not stated) 51.6 µM

Please give the measured TGI for this compound: Cc1cc2sc(C)[n+](CCCOS(=O)(=O)[O-])c2cc1C > 100 µM

Please give the measured TGI for this compound: CC1(c2cccc(Cl)c2)CC(c2cccc(Cl)c2)=C(C#N)C(=C(C#N)C#N)N1 (configuration not stated) 31.8 µM

Please give the measured TGI for this compound: O=C(c1ccccc1)N1OCCC1Nc1ccc(Br)cc1 (configuration not stated) > 10 µM

Please give the measured TGI for this compound: CC(=O)N(C(C)=O)n1c(-c2ccccc2)n[nH]c1=O > 100 µM

Please give the measured TGI for this compound: CCN1Cc2c(ccc(F)c2C#N)O[C@@H](C)CNC(=O)c2c(N)nn3ccc1nc23 13 µM

Please give the measured TGI for this compound: CC(=O)OCC(=O)[C@@]12OC(C)(C)O[C@@H]1C[C@H]1[C@@H]3CC=C4C[C@@H](O)CC[C@]4(C)[C@H]3CC[C@@]12C > 100 µM

Please give the measured TGI for this compound: O=C1CCCC1C(O)(C(F)(F)F)C(F)(F)F (configuration not stated) > 100 µM

Please give the measured TGI for this compound: COc1cc(-n2cc(-c3ccc(Cl)cc3)nc2SCc2cccc(C#N)c2)cc(OC)c1OC > 100 µM

Please give the measured TGI for this compound: COc1cc2c(cc1OCCCCCOc1ccc(-n3c(C)nc4ccccc4c3=O)cc1)N=C[C@@H]1CCCN1C2=O 0.64 µM

Please give the measured TGI for this compound: CC(C)(C)C(=O)CP(=O)(O)O > 100 µM

Please give the measured TGI for this compound: OC1[C@H](O)CN(OCc2ccccc2)C[C@@H]1O (some centres not stated) > 100 µM

Please give the measured TGI for this compound: CC(O)c1ccc[n+](Cc2ccccc2)c1 (configuration not stated) > 400 µM

Please give the measured TGI for this compound: COc1ccc2c(c1)Oc1cc(O)ccc1[C@@H]2c1ccccc1C(=O)NC(C)c1ccccc1 (some centres not stated) 41.3 µM

Please give the measured TGI for this compound: O=C1C=CC[C@H](/C=C/c2ccccc2)O1 26.5 µM

Please give the measured TGI for this compound: CCCCCCCCCCCCCCCCOCC(CP(=O)([O-])OCC[n+]1ccccc1)OC (configuration not stated) 17.6 µM

----------
Record form. Attribute: TGI. Fill in for each entry.
- System: CCRF-CEM leukemia
- Measurement description: NCI tumour cell line growth inhibition, 48 h

Please give the measured TGI for this compound: Cc1ccc(N(C(=O)Nc2ccc(F)c(Cl)c2)C2=NCC(C)S2)cc1 (centres undefined) > 100 µM

Please give the measured TGI for this compound: CC1(O)CC(c2nc(-c3ccc4ccc(-c5ccccc5)nc4c3)c3c(N)nccn23)C1 (centres undefined) > 100 µM

Please give the measured TGI for this compound: CC1=NN(C(=O)CC(=O)NC(=O)CC(=O)Nc2ccccc2F)C(=O)C1N=Nc1ccc([N+](=O)[O-])cc1 (centres undefined) 63.6 µM

Please give the measured TGI for this compound: COc1ccc(NC(=O)/C(=N/NC(N)=S)C2C(=O)NC(=S)NC2=O)c(OC)c1 > 100 µM

Please give the measured TGI for this compound: O=C1CCCC(=O)N1CCc1c[nH]c2ccccc12 > 100 µM

Please give the measured TGI for this compound: CN1C(=O)C(CC(=O)O)NC1=S (centres undefined) > 100 µM

Please give the measured TGI for this compound: Nc1ccc(S(=O)(=O)Nc2ccc(Nc3c4ccccc4nc4ccccc34)cc2)cc1 > 4.64 µM

Please give the measured TGI for this compound: Clc1ccc2nnnn2n1 29.8 µM

Please give the measured TGI for this compound: CC(NCCC(=O)N(CCC(=O)N(CCC(=O)N(CCC(=O)N(CCC(=O)N(CCC(=O)N(CCC(=O)N(CCC(=O)N(CCC(=O)N(CCC(=O)O)[C@H](C)c1ccccc1)[C@H](C)c1ccccc1)[C@H](C)c1ccccc1)[C@H](C)c1ccccc1)[C@H](C)c1ccccc1)[C@H](C)c1ccccc1)[C@H](C)c1ccccc1)[C@H](C)c1ccccc1)[C@H](C)c1ccccc1)c1ccccc1 (some centres undefined) > 19.5 µM

Please give the measured TGI for this compound: COc1ccc(NC(=O)COCCOCCNC[C@@H]2C(=O)O[C@H]3[C@H]2CC/C(COC(=O)OC/C2=C/CC[C@@]4(C)O[C@H]4[C@H]4OC(=O)[C@@H](CN(C)C)[C@@H]4CC2)=C\CC[C@@]2(C)O[C@@H]32)c(O)c1C(N)=O 3.27 µM

Please give the measured TGI for this compound: O=c1[nH]c(=O)c2cc(C3CC(O)C(CO)O3)ccc2[nH]1 (centres undefined) > 100 µM

Please give the measured TGI for this compound: Cc1ccc(C2SC(N)=Nc3c2c(C)nn3C(=O)c2ccccc2O)cc1 (centres undefined) > 10 µM

Please give the measured TGI for this compound: CC(C)(C)OC(=O)NC(CCC(=O)OCc1ccccc1)C(=O)NCCCO (centres undefined) > 100 µM

Please give the measured TGI for this compound: CC(O)c1ccc[n+](Cc2ccccc2)c1 (centres undefined) > 400 µM

Please give the measured TGI for this compound: C=CC[C@@]1([C@H](C=C)COCc2ccc(OC)cc2)CC[C@]2(C)OC(C)(C)[C@@H](c3ccccc3)N2C1=S > 100 µM

Please give the measured TGI for this compound: Nc1nc2n[nH]nc2c(=O)[nH]1 > 100 µM

Please give the measured TGI for this compound: COc1cccc(-c2nc3ccccc3c(=O)[nH]2)c1OC > 100 µM

Please give the measured TGI for this compound: Cc1c2c(Cl)c3c(c(Cl)c2c(C)c2c(Cl)c4c(c(Cl)c12)C(c1ccccc1)(c1ccccc1)C4(c1ccccc1)c1ccccc1)C(c1ccccc1)(c1ccccc1)C3(c1ccccc1)c1ccccc1 > 100 µM

Please give the measured TGI for this compound: Cc1ccc2c(c1)C(C)Cc1c(Cl)ncnc1N2C (centres undefined) > 100 µM

Please give the measured TGI for this compound: Cc1ccc([N+](=O)[O-])cc1NC(=O)c1cccc([N+](=O)[O-])c1O 83.7 µM

Please give the measured TGI for this compound: CCOC(=O)/C(=C\c1ccc(C#N)cc1)C(C)=O > 100 µM

Please give the measured TGI for this compound: Fc1ccccc1C1SCc2nc3ccccc3n21 (centres undefined) > 100 µM

Please give the measured TGI for this compound: COc1ccc(-n2cc(-c3cc(OC)c(OC)c(OC)c3)nc2SCc2ccccc2)cc1OC > 100 µM

Please give the measured TGI for this compound: N#CC1=C(N)Oc2c(sc3c(Br)cccc23)C1c1ccc(Br)cc1 (centres undefined) 13.6 µM

Please give the measured TGI for this compound: NC(CCC(=O)NC(CSC(=O)N(O)c1ccccc1)C(=O)NCC(=O)O)C(=O)O (centres undefined) > 1000 µM

Please give the measured TGI for this compound: CN(C)CC1CCCC(CN(C)C)C1=NOC(=O)c1ccccc1 (centres undefined) > 100 µM

Please give the measured TGI for this compound: Cc1ccc(/C=C2\CN(C)CC3C2=NN(c2ccccc2)C3c2ccc(C)cc2)cc1 (centres undefined) 95.7 µM

Please give the measured TGI for this compound: O=c1oc2cc(N=Cc3ccc4c(c3)OCO4)ccc2c2ccccc12 > 100 µM

Please give the measured TGI for this compound: C#C[C@]1(O)CC[C@H]2[C@@H]3CCC4=C/C(=N/NC(=O)c5cccc6cc7ccccc7nc56)CC[C@@H]4[C@H]3CC[C@@]21CC > 100 µM
